# test target: Steryl-sulfatase (Homo sapiens, UniProt P08842)
# Sequence (P08842 whole entry): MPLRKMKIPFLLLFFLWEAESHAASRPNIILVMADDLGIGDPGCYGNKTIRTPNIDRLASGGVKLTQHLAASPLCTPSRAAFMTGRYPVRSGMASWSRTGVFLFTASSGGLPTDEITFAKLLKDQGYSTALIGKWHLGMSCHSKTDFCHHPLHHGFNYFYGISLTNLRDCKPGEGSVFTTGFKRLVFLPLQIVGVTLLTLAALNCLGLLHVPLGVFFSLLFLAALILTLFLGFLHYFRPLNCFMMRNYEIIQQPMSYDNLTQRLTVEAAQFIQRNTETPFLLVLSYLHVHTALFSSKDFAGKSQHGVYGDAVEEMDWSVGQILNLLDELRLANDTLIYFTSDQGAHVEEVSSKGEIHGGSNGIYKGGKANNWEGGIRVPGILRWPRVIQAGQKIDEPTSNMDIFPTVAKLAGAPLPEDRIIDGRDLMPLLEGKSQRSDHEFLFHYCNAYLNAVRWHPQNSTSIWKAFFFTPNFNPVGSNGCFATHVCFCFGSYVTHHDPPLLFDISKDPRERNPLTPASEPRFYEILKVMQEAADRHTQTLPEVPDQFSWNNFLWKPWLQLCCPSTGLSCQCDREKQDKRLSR
# protocol details: Reversible inhibition of human estrone sulfatase using 4-methylumbelliferyl sulfate as substrate by fluorimetric assay
measurement name: Ki

compound structure: C[C@]12CC[C@@H]3c4ccc(B(O)O)cc4CC[C@H]3[C@@H]1CC[C@@]2(O)Cc1ccccc1
measurement name: Ki
value reported: 0.25 µM
//
compound structure: C[C@]12CC[C@@H]3c4ccc(B(O)O)cc4CC[C@H]3[C@@H]1CCC2=O
measurement name: Ki
value reported: 2.8 µM

* * *

# test target: Steryl-sulfatase (Homo sapiens)
# protocol details: Inhibition of human aryl sulfatase using p-nitrocatechol sulfate as substrate incubated for 30 mins by microplate reader analysis
pIC50: −log10 of the molar value.
measurement name: pIC50

compound structure: NS(=O)(=O)Oc1ccc2nc(C=C3C4CC5CC(C4)CC3C5)oc2c1
value reported: 6.01
